Test system: RXF 393
Experimental details: NCI tumour cell line growth inhibition, 48 h
Active and inactive are the calls of the source. Rule as the data show it: active = GI50 up to about 1.1 µM and inactive = higher.
Below: a set of entries, each annotated with reported GI50.

{"Molecule": "CCN(CC)C(=O)CCCCCCCCC1CO1 (stereo not given)", "GI50": "> 100 µM (inactive)"}
{"Molecule": "CCOc1cc(NC(C)=O)ccc1C(=O)NN1C(=O)C(Oc2ccccc2)C1c1ccccc1 (stereo not given)", "GI50": "70.5 µM (inactive)"}
{"Molecule": "COc1ccc(C(=O)C=C2NCCN2)cc1", "GI50": "> 100 µM (inactive)"}
{"Molecule": "COc1ccccc1/C=N/Nc1nnc2c3ccccc3c3ncccc3c2n1", "GI50": "18.1 µM (inactive)"}
{"Molecule": "N#C[BH2-][n+]1cn(C2CC(O)C(COP(=O)(O)OC3CC(n4cnc5c(=O)[nH]c(N)nc54)OC3CO)O2)c2nc(N)[nH]c(=O)c21 (stereo not given)", "GI50": "97.3 µM (inactive)"}
{"Molecule": "COc1ccc2nc3cc(Cl)ccc3c(NCCNC(=O)Cn3c(=O)n(C)c(=O)c4c3nc3c(c(=O)n(C)c(=O)n3C)[n+]4[O-])c2c1", "GI50": "42.1 µM (inactive)"}
{"Molecule": "CN1C(=S)C(c2ccccc2)Sc2ccccc21 (stereo not given)", "GI50": "50.2 µM (inactive)"}
{"Molecule": "CCOC1=C2N=C(Cc3ccccc3F)N=C2C(=O)c2ccccc21", "GI50": "> 100 µM (inactive)"}
{"Molecule": "CN(C)CCCn1c(Cc2ccc(Cl)cc2)nc2cc(C(F)(F)F)ccc21", "GI50": "9.06 µM (inactive)"}
{"Molecule": "CC(C)(CCCCC(C)(C)C1NC(=O)N1)C1NC(=O)N1", "GI50": "> 10 µM (inactive)"}

Data provenance is ChEMBL document CHEMBL1201862.
